# Tested on: T47D
# METHOD: NCI tumour cell line growth inhibition, 48 h
Active and inactive are the calls of the source. Rule as the data show it: active = GI50 up to about 1.1 µM and inactive = higher.
A correct response names exactly one class from active, inactive

Lookup: GET /call?item= Clc1nc(Cl)c(-c2ccccc2)c(Cl)n1 returns the recorded outcome of this test.
Found: inactive

Lookup: GET /call?item= COc1cc(-c2ccc(Nc3ccccc3C(=O)O)c(OC)c2)ccc1Nc1ccccc1C(=O)O returns the recorded outcome of this test.
Found: inactive

Lookup: GET /call?item= Cc1ccc(Cc2n[nH]c(=O)n2-c2ccccc2)cc1 returns the recorded outcome of this test.
Found: active

Lookup: GET /call?item= C=C[C@@]1(C)CC2(C=C(CO)C(O)O2)Oc2c1c(=O)oc1cccc(C)c21 (stereo partly specified) returns the recorded outcome of this test.
Found: inactive

Lookup: GET /call?item= CC(C)OC(=O)c1ccc(NCc2cc(O)ccc2O)cc1 returns the recorded outcome of this test.
Found: inactive

Lookup: GET /call?item= Cc1ccc2c(n1)NC(=O)C(Cc1ccccc1)(N=[N+]=[N-])C2=O (stereo unspecified) returns the recorded outcome of this test.
Found: inactive

====

Hi there, I'd appreciate the recorded GI50 for every entry that follows.
# Tested on: M14
# METHOD: NCI tumour cell line growth inhibition, 48 h
The source made the active and inactive calls. Rule as the data show it: active = GI50 up to about 1.1 µM and inactive = higher.

Lookup: Which GI50 value belongs to NS(=O)(=O)c1nnc(NC(=O)c2ccccc2)s1 ?
Found: > 100 µM (inactive)

Lookup: Which GI50 value belongs to C[N+](C)(C)c1ncnc2c1ncn2C1CCCO1 (stereo unspecified) ?
Found: > 100 µM (inactive)

Lookup: Which GI50 value belongs to C=CCc1cc(-c2cc(CC=C)c(O)c(CNC)c2)cc(CNC)c1O ?
Found: 15.6 µM (inactive)

Lookup: Which GI50 value belongs to Cc1ccc(NC(=O)c2cc(S(=O)(=O)Nc3n[nH]c(=O)n3-c3ccccc3)c(S)cc2Cl)cc1 ?
Found: > 100 µM (inactive)

Lookup: Which GI50 value belongs to CCOC(=O)C(=CNc1ccc(N(C2=NCC(C)S2)c2ccc(F)c(Cl)c2)cc1)C(=O)OCC (stereo unspecified) ?
Found: 18.9 µM (inactive)

Lookup: Which GI50 value belongs to O=C1NCC2(CCN(CC3COc4ccccc4O3)CC2)N1c1ccccc1 (stereo unspecified) ?
Found: > 100 µM (inactive)

====

# Test system: COLO 205
# METHOD: NCI tumour cell line growth inhibition, 48 h
Calls of active or inactive are those of the source. Rule as the data show it: active = GI50 up to about 1.1 µM and inactive = higher. Where a SMILES comes first, the peptide text is derived from it. [ ]: non-standard residue; d: D form. Hiv = CC(C)[C@H](O)C(=O)O
A correct response names exactly one class from yes (1) for active, no (0) for inactive

Lookup: GET /call?item= O=c1c(-c2ccccc2)c2oc(c1-c1ccccc1)CSCc1cccc(c1)CSC2 returns the recorded outcome of this test.
Found: no (0)

Lookup: GET /call?item= CC(C)[C@@H]1OC(=O)[C@@H](C)NC(=O)[C@@H]2CCCN2C1=O (cyclo([Hiv]-Pro-[dA])) returns the recorded outcome of this test.
Found: no (0)

Lookup: GET /call?item= Cc1cc(C)c2nccc(NCCCN(C)C)c2c1[N+](=O)[O-] returns the recorded outcome of this test.
Found: no (0)

Lookup: GET /call?item= N#CCC1(c2ccc(Cl)cc2)NC(=O)c2ccccc21 (stereo not given) returns the recorded outcome of this test.
Found: no (0)

Lookup: GET /call?item= CCOC(=O)C(C)c1nc2cc(F)c(F)cc2[nH]c1=O (stereo not given) returns the recorded outcome of this test.
Found: no (0)

Lookup: GET /call?item= O=C1c2ccccc2CC12CCC1(CC2)OCCO1 returns the recorded outcome of this test.
Found: no (0)

Lookup: GET /call?item= CC1OC2OC3C(OCC(O)C3O)OC(=O)[C@]34CCC(C)(C)CC3C3=CCC5[C@@]6(C)C[C@H](O)[C@H](OC7OC(CO)C(O)C(O)C7OC7OC(COC(=O)CC(C)(O)CC(=O)OC1C(OC1OC(CO)C(O)C(O)C1O)C2O)C(O)C(O)C7O)[C@@](C)(CO)C6CC[C@@]5(C)[C@]3(C)CC4 (stereo not given in full) returns the recorded outcome of this test.
Found: no (0)

Lookup: GET /call?item= FC1C2=C(SC1(F)F)C1CCC2C1 (stereo not given) returns the recorded outcome of this test.
Found: no (0)

Lookup: GET /call?item= CC(=O)N1CN2C(=O)CCC2c2ccccc21 (stereo not given) returns the recorded outcome of this test.
Found: no (0)

Lookup: GET /call?item= COc1cc2c(c(OC)c1OC)-c1ccc(SC)cc1[C@H](OC(=O)c1ccccc1)CC2 returns the recorded outcome of this test.
Found: yes (1)

Lookup: GET /call?item= COC(=O)/C=C\C(C#N)(C#N)/N=C/c1ccsc1 returns the recorded outcome of this test.
Found: no (0)

Lookup: GET /call?item= CC(=O)Nc1ccc2c(C)c3c(nc2n1)[nH]c1ccccc13 returns the recorded outcome of this test.
Found: no (0)

Lookup: GET /call?item= CC(C)(C)c1cc(Br)c(O)c(CN(Cc2cc(C(C)(C)C)cc(Br)c2O)C2CCCCC2)c1 returns the recorded outcome of this test.
Found: no (0)

Lookup: GET /call?item= CCCCSCCC(N)P(=O)(O)O (stereo not given) returns the recorded outcome of this test.
Found: no (0)

Lookup: GET /call?item= O=C1NCC2(CCN(CC3COc4ccccc4O3)CC2)N1c1ccccc1 (stereo not given) returns the recorded outcome of this test.
Found: no (0)

Lookup: GET /call?item= Cc1cccc2c1CC(C1OC(=O)c3c(C)cccc31)C2=O (stereo not given) returns the recorded outcome of this test.
Found: no (0)

Lookup: GET /call?item= CN1c2ccccc2C(=O)Nc2cnc(Cl)nc21 returns the recorded outcome of this test.
Found: no (0)

Lookup: GET /call?item= N#Cc1c(-c2ccc([N+](=O)[O-])cc2)cc(-c2ccc(Nc3ccnc4cc(Cl)ccc34)cc2)[nH]c1=O returns the recorded outcome of this test.
Found: no (0)

Lookup: GET /call?item= Cc1ccc(S(=O)(=O)NC(CN)C(=O)O)cc1 (stereo not given) returns the recorded outcome of this test.
Found: no (0)

Lookup: GET /call?item= S=c1[nH]n2c(CCCCCCCCc3nnc4sc(=S)[nH]n34)nnc2s1 returns the recorded outcome of this test.
Found: no (0)

Lookup: GET /call?item= O=C(O)c1cc(Cl)cc(Cc2cc(Cl)cc(C(=O)O)c2O)c1O returns the recorded outcome of this test.
Found: no (0)

Lookup: GET /call?item= C/C(=N/Nc1ccc([N+](=O)[O-])cc1[N+](=O)[O-])C(CC(C(=O)Nc1ccccc1C)/C(C)=N\Nc1ccc([N+](=O)[O-])cc1[N+](=O)[O-])C(=O)Nc1ccccc1C (stereo not given) returns the recorded outcome of this test.
Found: no (0)

Lookup: GET /call?item= Cc1cc2c(cc1C)NC(=O)C(NC(=O)/C=C/c1ccccc1)C=N2 (stereo not given) returns the recorded outcome of this test.
Found: no (0)

Lookup: GET /call?item= c1ccc(-c2cnc(-c3ccc(-c4ncc(-c5ccccc5)o4)cc3)o2)cc1 returns the recorded outcome of this test.
Found: no (0)

Lookup: GET /call?item= CCOc1ccc2c(c1)[n+]([O-])c(C(N)=O)c(N)[n+]2[O-] returns the recorded outcome of this test.
Found: no (0)

Lookup: GET /call?item= Cc1cc2nc(C#N)c(N3CCN(c4ccc([N+](=O)[O-])cc4)CC3)nc2cc1C returns the recorded outcome of this test.
Found: no (0)

Lookup: GET /call?item= CCCNc1[nH]c(C(C)=O)c(N)c1C(=S)Nc1ccccc1 returns the recorded outcome of this test.
Found: no (0)

Lookup: GET /call?item= Cc1c(C)c(S(=O)(=O)N(CCCN)OCCCN)c(C)c2c1OC(C)(C)C2 returns the recorded outcome of this test.
Found: no (0)

Lookup: GET /call?item= c1ccc([P+](Cc2csnn2)(c2ccccc2)c2ccccc2)cc1 returns the recorded outcome of this test.
Found: no (0)

Lookup: GET /call?item= COc1ccc(C)cc1Nc1nnc(-c2ccccc2N)s1 returns the recorded outcome of this test.
Found: no (0)

====

# Test system: CCRF-CEM
# METHOD: NCI tumour cell line growth inhibition, 48 h
Activity calls are given as the source filed them. Rule as the data show it: active = GI50 up to about 1.1 µM and inactive = higher.
A correct response names exactly one class from label 1 for active, label 0 for inactive

Lookup: GET /call?item= COc1ccc(/C=N/NC(=S)Nc2cc(C)ccc2OC)cc1 returns the recorded outcome of this test.
Found: label 0

Lookup: GET /call?item= CCOC(=O)/C(=N\Nc1ccc(-n2c(C)nc3ccc(Br)cc3c2=O)cc1)C(C)=O returns the recorded outcome of this test.
Found: label 0

Lookup: GET /call?item= Cn1c2ccccc2c(=O)c2c(O)cc3c(c21)CC(C1(C)CO1)O3 (centres undefined) returns the recorded outcome of this test.
Found: label 1

Lookup: GET /call?item= Cc1ccc(N2Cc3c(ccc4ccccc34)OP2(=S)N2CCCC2)cc1 (centres undefined) returns the recorded outcome of this test.
Found: label 0

Lookup: GET /call?item= COc1cccc(-c2c(C#N)c(N)nc3c2CCS(=O)(=O)c2ccc(C)cc2-3)c1 returns the recorded outcome of this test.
Found: label 0

Lookup: GET /call?item= Cc1c2ccccc2c(C2C3C(=O)N(c4ccc(Br)cc4)C(=O)C3ON2C(C(N)=O)c2ccccc2)c2ccccc12 (centres undefined) returns the recorded outcome of this test.
Found: label 0

Lookup: GET /call?item= Cc1cc2c(cc1Cl)SC(NNc1cnc3ccccc3n1)=NS2(=O)=O returns the recorded outcome of this test.
Found: label 0

Lookup: GET /call?item= CC(C)(C)[Si](C)(C)O/N=C\c1ccc(O[Si](C)(C)C(C)(C)C)cc1 returns the recorded outcome of this test.
Found: label 0

Lookup: GET /call?item= NCCCCCC(CCN)SCC1OC(n2cnc3c(N)ncnc32)C(O)C1O (centres undefined) returns the recorded outcome of this test.
Found: label 0

Lookup: GET /call?item= CC1CC[C@]2(C(=O)O)CCC3(C)C(=C2[C@H]1C)C=CC1[C@@]2(C)CC[C@H](O)C(C)(C)C2CC[C@]13C (some centres undefined) returns the recorded outcome of this test.
Found: label 0

Lookup: GET /call?item= CN(CC#N)C(=O)Cc1ccc([N+](=O)[O-])cc1 returns the recorded outcome of this test.
Found: label 0

Lookup: GET /call?item= CC(=O)Oc1ccc(/C=C/C(=O)O[C@@H](C(=O)O)[C@@H](OC(=O)/C=C/c2ccc(OC(C)=O)c(OC(C)=O)c2)C(=O)O)cc1OC(C)=O returns the recorded outcome of this test.
Found: label 0

Lookup: GET /call?item= CCc1n[nH]c(=O)n1CC returns the recorded outcome of this test.
Found: label 0

Lookup: GET /call?item= O=C1CN(c2cccc(C(F)(F)F)c2)C(=O)CN1NCNN1CC(=O)N(c2cccc(C(F)(F)F)c2)CC1=O returns the recorded outcome of this test.
Found: label 0
